measurementTarget: Amyloid-beta precursor protein (Homo sapiens)
experiment: Inhibition of self-induced amyloid beta (1-42) aggregation (unknown origin) at 25 uM after 48 hrs by thioflavin T fluorescence method
Record label 1 whenever inhibition is at 30% or higher; record label 0 when lower.

Quick check, inhibition >= 30%? COc1cc2c(cc1OC)C(=O)C(C(=O)Nc1ccccc1F)C2 (configuration not stated)
label 1

Entry COc1ccccc1NC(=O)C1Cc2cc(OC)c(OC)cc2C1=O (configuration not stated) : is its inhibition no less than 30%?
label 0

Dear colleague, could you confirm whether COc1cc2c(cc1OC)C(=O)C(C(=O)Nc1ccccc1)C2 (configuration not stated) has inhibition at or above 30%?
label 0

Check if inhibition >= 30% (inclusive). Item: COc1cc2c(cc1OC)C(=O)C(C(=O)Nc1cccc(C)c1)C2 (configuration not stated)
label 0

inhibition >= 30% for COc1cc2c(cc1OC)C(=O)C(C(=O)Nc1cccc(F)c1)C2 (configuration not stated) ?
label 1

Answer whether inhibition of CCOc1ccc(NC(=O)C2Cc3cc(OC)c(OC)cc3C2=O)cc1 (configuration not stated) is greater than or equal to 30%.
label 1

Identify whether the reported inhibition of the following compound is 30% or greater: COc1ccc(NC(=O)C2Cc3cc(OC)c(OC)cc3C2=O)cc1 (configuration not stated)
label 1

Hello, I need to know if CCc1ccccc1NC(=O)C1Cc2cc(OC)c(OC)cc2C1=O (configuration not stated) has measured inhibition not below 30%. Thanks!
label 0

Is inhibition for CCc1ccc(NC(=O)C2Cc3cc(OC)c(OC)cc3C2=O)cc1 (configuration not stated) at or above 30%?
label 1

Kindly determine if inhibition recorded for COc1cc2c(cc1OC)C(=O)C(C(=O)Nc1ccccc1C)C2 (configuration not stated) is above or exactly 30%.
label 1

API: above_or_equal(metric=inhibition, cutoff=30%) for item COc1cc2c(cc1OC)C(=O)C(C(=O)Nc1ccc(C)cc1)C2 (configuration not stated)
label 0

Given the entry COc1cc2c(cc1OC)C(=O)C(C(=O)Nc1ccccc1Br)C2 (configuration not stated) , answer whether its inhibition meets or surpasses 30%.
label 1

Given the entry CCOc1cccc(NC(=O)C2Cc3cc(OC)c(OC)cc3C2=O)c1 (configuration not stated) , answer whether its inhibition meets or surpasses 30%.
label 0

State whether the measured inhibition reaches 30%, counting equality as reaching it, for COc1cc2c(cc1OC)C(=O)C(C(=O)Nc1ccc(Cl)cc1)C2 (configuration not stated)
label 1

Dear colleague, could you confirm whether COc1cc2c(cc1OC)C(=O)C(C(=O)Nc1cccc(Cl)c1)C2 (configuration not stated) has inhibition at or above 30%?
label 1

Is reported inhibition greater than or equal to 30% here: COc1cc2c(cc1OC)C(=O)C(C(=O)Nc1cccc(Br)c1)C2 (configuration not stated)
label 1

Dear colleague, could you confirm whether COc1cc2c(cc1OC)C(=O)C(C(=O)Nc1ccccc1Cl)C2 (configuration not stated) has inhibition at or above 30%?
label 1

Does the compound CCc1cccc(NC(=O)C2Cc3cc(OC)c(OC)cc3C2=O)c1 (configuration not stated) have recorded inhibition that is 30% or more?
label 0

Determine whether this compound has inhibition no lower than 30%: CCOc1ccccc1NC(=O)C1Cc2cc(OC)c(OC)cc2C1=O (configuration not stated)
label 1

API: above_or_equal(metric=inhibition, cutoff=30%) for item COc1cc2c(cc1OC)C(=O)C(C(=O)Nc1ccc(Br)cc1)C2 (configuration not stated)
label 1

Is inhibition for COc1cc2c(cc1OC)C(=O)C(C(=O)Nc1ccc(F)cc1)C2 (configuration not stated) at or above 30%?
label 1

----------
measurementTarget: Cholinesterase (Equus caballus, UniProt P81908)
Sequence (P81908 whole entry): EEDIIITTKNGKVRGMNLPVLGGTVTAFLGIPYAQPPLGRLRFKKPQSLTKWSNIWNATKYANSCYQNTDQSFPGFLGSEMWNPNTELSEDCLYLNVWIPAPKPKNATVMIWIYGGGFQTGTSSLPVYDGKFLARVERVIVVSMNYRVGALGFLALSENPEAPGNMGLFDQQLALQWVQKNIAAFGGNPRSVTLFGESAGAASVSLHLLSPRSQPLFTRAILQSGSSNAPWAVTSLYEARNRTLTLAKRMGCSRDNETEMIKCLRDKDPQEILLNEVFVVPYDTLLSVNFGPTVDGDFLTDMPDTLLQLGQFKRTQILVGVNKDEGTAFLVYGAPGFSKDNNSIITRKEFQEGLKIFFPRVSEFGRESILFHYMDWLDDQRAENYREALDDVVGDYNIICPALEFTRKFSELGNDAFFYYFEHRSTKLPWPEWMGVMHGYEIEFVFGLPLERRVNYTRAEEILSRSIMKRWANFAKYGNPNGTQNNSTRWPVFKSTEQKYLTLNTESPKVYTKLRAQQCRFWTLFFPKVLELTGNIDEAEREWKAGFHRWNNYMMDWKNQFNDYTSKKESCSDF
experiment: Inhibition of equine serum BuChE using butyrylthiocholine iodide as substrate preincubated for 15 mins by Ellman's method
testReadout: pIC50
Worth noting: pIC50 values are minus log10 of concentrations stated in mol/L.

Summary for this molecule, COc1cc2c(cc1OC)C(=O)C(C(=O)Nc1ccc(C)cc1)C2 (configuration not stated) : pIC50 is 5.60

Recorded result, COc1cc2c(cc1OC)C(=O)C(C(=O)Nc1cccc(F)c1)C2 (configuration not stated) , pIC50: 5.65

// sample COc1cc2c(cc1OC)C(=O)C(C(=O)Nc1ccccc1Cl)C2 (configuration not stated) , its pIC50 was 5.15

Short answer for CCOc1cccc(NC(=O)C2Cc3cc(OC)c(OC)cc3C2=O)c1 (configuration not stated) : pIC50 was 5.41

Summary for this molecule, CCc1ccccc1NC(=O)C1Cc2cc(OC)c(OC)cc2C1=O (configuration not stated) : pIC50 is 5.20

Summary for this molecule, COc1cc2c(cc1OC)C(=O)C(C(=O)Nc1cccc(Cl)c1)C2 (configuration not stated) : pIC50 is 5.65

For reference, reported pIC50 for COc1cc2c(cc1OC)C(=O)C(C(=O)Nc1ccccc1F)C2 (configuration not stated) stands at 5.49

// pIC50 value for COc1cc2c(cc1OC)C(=O)C(C(=O)Nc1ccc(F)cc1)C2 (configuration not stated) : 5.58

Entry COc1cc2c(cc1OC)C(=O)C(C(=O)Nc1ccc(Br)cc1)C2 (configuration not stated) — recorded pIC50 = 5.44

Measured pIC50, CCOc1ccccc1NC(=O)C1Cc2cc(OC)c(OC)cc2C1=O (configuration not stated) : 5.18

Short answer for COc1cc2c(cc1OC)C(=O)C(C(=O)Nc1ccc(Cl)cc1)C2 (configuration not stated) : pIC50 was 5.36

// field: pIC50; key: COc1cc2c(cc1OC)C(=O)C(C(=O)Nc1ccccc1Br)C2 (configuration not stated) ; value = 5.47

GET /value?item= COc1cc2c(cc1OC)C(=O)C(C(=O)Nc1ccccc1C)C2 (configuration not stated) &field=pIC50 returns 5.51

Please fill in: pIC50 reported for CCc1cccc(NC(=O)C2Cc3cc(OC)c(OC)cc3C2=O)c1 (configuration not stated) = 5.53

Lab book: pIC50 of COc1ccccc1NC(=O)C1Cc2cc(OC)c(OC)cc2C1=O (configuration not stated) noted as 5.32

For record COc1cc2c(cc1OC)C(=O)C(C(=O)Nc1ccccc1)C2 (configuration not stated) the listed pIC50 is 5.50

# pIC50 (molecule: COc1cccc(NC(=O)C2Cc3cc(OC)c(OC)cc3C2=O)c1 (configuration not stated) ) is 5.68

Per the records, this molecule ( COc1cc2c(cc1OC)C(=O)C(C(=O)Nc1cccc(Br)c1)C2 (configuration not stated) ) has pIC50 equal to 5.61

Reported pIC50 for CCc1ccc(NC(=O)C2Cc3cc(OC)c(OC)cc3C2=O)cc1 (configuration not stated) was 5.53

# pIC50 of COc1ccc(NC(=O)C2Cc3cc(OC)c(OC)cc3C2=O)cc1 (configuration not stated) = 5.54

Quick note, pIC50 for COc1cc2c(cc1OC)C(=O)C(C(=O)Nc1cccc(C)c1)C2 (configuration not stated) landed at 5.65

Form field pIC50, entry CCOc1ccc(NC(=O)C2Cc3cc(OC)c(OC)cc3C2=O)cc1 (configuration not stated) : 5.58

----------
experiment: Selectivity ratio of IC50 for equine BuChE to IC50 for electric eel AChE
testReadout: Ratio IC50
Just the number, please.

Reported Ratio IC50 ( COc1cc2c(cc1OC)C(=O)C(C(=O)Nc1cccc(Br)c1)C2 (stereo unspecified) ) = 7.4

Measured Ratio IC50, COc1cc2c(cc1OC)C(=O)C(C(=O)Nc1cccc(Cl)c1)C2 (stereo unspecified) : 4.8

Given item COc1cc2c(cc1OC)C(=O)C(C(=O)Nc1ccc(C)cc1)C2 (stereo unspecified) , the value recorded as its Ratio IC50 is 3.2

The recorded Ratio IC50 for COc1cc2c(cc1OC)C(=O)C(C(=O)Nc1cccc(C)c1)C2 (stereo unspecified) is 2.9

For reference, reported Ratio IC50 for COc1cc2c(cc1OC)C(=O)C(C(=O)Nc1ccccc1F)C2 (stereo unspecified) stands at 40.1

COc1ccccc1NC(=O)C1Cc2cc(OC)c(OC)cc2C1=O (stereo unspecified) yielded Ratio IC50 of 6.9

Briefly, Ratio IC50 measured for COc1cc2c(cc1OC)C(=O)C(C(=O)Nc1ccccc1)C2 (stereo unspecified) : 3.4

Lab note: measured Ratio IC50 of COc1cccc(NC(=O)C2Cc3cc(OC)c(OC)cc3C2=O)c1 (stereo unspecified) was 3.9

Input CCc1cccc(NC(=O)C2Cc3cc(OC)c(OC)cc3C2=O)c1 (stereo unspecified) . Output Ratio IC50: 4.4

Record summary for COc1cc2c(cc1OC)C(=O)C(C(=O)Nc1ccccc1C)C2 (stereo unspecified) : reported Ratio IC50 = 8.5

Just so you know, measured Ratio IC50 for CCOc1ccc(NC(=O)C2Cc3cc(OC)c(OC)cc3C2=O)cc1 (stereo unspecified) came out at 4.5

Ratio IC50 in this record for COc1cc2c(cc1OC)C(=O)C(C(=O)Nc1ccc(F)cc1)C2 (stereo unspecified) : 24.1

The measured Ratio IC50 associated with CCc1ccc(NC(=O)C2Cc3cc(OC)c(OC)cc3C2=O)cc1 (stereo unspecified) reads 4.6

Entry COc1cc2c(cc1OC)C(=O)C(C(=O)Nc1ccc(Br)cc1)C2 (stereo unspecified) — recorded Ratio IC50 = 26.1

Entry COc1cc2c(cc1OC)C(=O)C(C(=O)Nc1ccc(Cl)cc1)C2 (stereo unspecified) , Ratio IC50 reported as 8.8

GET /value?item= CCOc1ccccc1NC(=O)C1Cc2cc(OC)c(OC)cc2C1=O (stereo unspecified) &field=Ratio IC50 returns 8.6
